# TESTED SYSTEM: MATE1 (Homo sapiens, UniProt Q96FL8)
# Sequence (Q96FL8 whole entry): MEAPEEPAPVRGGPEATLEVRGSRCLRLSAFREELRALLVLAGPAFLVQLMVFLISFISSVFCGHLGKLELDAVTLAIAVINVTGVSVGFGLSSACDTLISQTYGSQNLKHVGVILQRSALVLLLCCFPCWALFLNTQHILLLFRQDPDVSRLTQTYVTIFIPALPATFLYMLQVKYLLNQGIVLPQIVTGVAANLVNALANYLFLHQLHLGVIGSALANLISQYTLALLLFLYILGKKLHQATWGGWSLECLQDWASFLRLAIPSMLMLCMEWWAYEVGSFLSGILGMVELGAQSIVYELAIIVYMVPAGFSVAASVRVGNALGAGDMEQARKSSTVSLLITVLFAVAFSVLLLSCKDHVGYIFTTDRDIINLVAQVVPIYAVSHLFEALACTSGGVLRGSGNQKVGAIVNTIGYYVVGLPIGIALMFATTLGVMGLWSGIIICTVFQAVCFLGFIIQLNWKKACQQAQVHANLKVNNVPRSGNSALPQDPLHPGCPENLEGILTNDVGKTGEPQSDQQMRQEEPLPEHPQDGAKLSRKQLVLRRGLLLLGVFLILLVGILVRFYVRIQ
# EXPERIMENT NOTES: [14C]TEA uptake in HEK293 cells overexpressing human MATE1
# CONDITIONS: human, HEK293 cells overexpressing human MATE1, pH 7.4, probe [14C]TEA (tetraethylammonium), 2 µM
# Method: Uptake experiments in HEK293 cells overexpressing mouse (m) and human (h) OCT2 or MATE1 were performed with radiolabeled tetraethylammonium (TEA) as the model substrate, using standard methods in the presence or absence of TKIs. The cell culture and uptake conditions for cells expressing mMATE1 or hMATE1 were described previously. […]
PROPERTY: inhibition at 10 µM (%)

compound="CNC(=O)c1cc(Oc2ccc(NC(=O)Nc3ccc(Cl)c(C(F)(F)F)c3)c(F)c2)ccn1 [Regorafenib]" property="inhibition at 10 µM" unit_of_measurement=% result_number=72.1
compound="CCn1c(=O)c(-c2cc(NC(=O)Nc3ccccc3)c(F)cc2Br)cc2cnc(NC)cc21 [Ripretinib]" property="inhibition at 10 µM" unit_of_measurement=% result_number=51.9
compound="COc1cc2c(Nc3ccc(Br)cc3F)ncnc2cc1OCC1CCN(C)CC1 [Vandetanib]" property="inhibition at 10 µM" unit_of_measurement=% result_number=99.5
compound="C=CC(=O)Nc1cc(Nc2nccc(-c3cn(C)c4ccccc34)n2)c(OC)cc1N(C)CCN(C)C [Osimertinib]" property="inhibition at 10 µM" unit_of_measurement=% result_number=94.1
compound="CCN1C(=O)N(c2c(F)c(OC)cc(OC)c2F)Cc2cnc3[nH]c(CN4CCOCC4)cc3c21 [Pemigatinib]" property="inhibition at 10 µM" unit_of_measurement=% result_number=80.1
compound="CCc1cc2c(cc1N1CCC(N3CCOCC3)CC1)C(C)(C)c1[nH]c3cc(C#N)ccc3c1C2=O [Alectinib]" property="inhibition at 10 µM" unit_of_measurement=% result_number=0
compound="CCOc1cc2ncc(C#N)c(Nc3ccc(OCc4ccccn4)c(Cl)c3)c2cc1NC(=O)/C=C/CN(C)C [Neratinib]" property="inhibition at 10 µM" unit_of_measurement=% result_number=90.9
compound="Cc1cc(Nc2ncnc3ccc(NC4=NC(C)(C)CO4)cc23)ccc1Oc1ccn2ncnc2c1 [Tucatinib]" property="inhibition at 10 µM" unit_of_measurement=% result_number=96.3
compound="CNC(=O)c1ccc(-c2cnc3ncc(Cc4ccc5ncccc5c4)n3n2)cc1F [Capmatinib]" property="inhibition at 10 µM" unit_of_measurement=% result_number=99.7
compound="C[C@@H]1CCN(C(=O)CC#N)C[C@@H]1N(C)c1ncnc2[nH]ccc12 [Tofacitinib]" property="inhibition at 10 µM" unit_of_measurement=% result_number=90.4
compound="C=CC(=O)Nc1cccc(Oc2nc(Nc3ccc(N4CCN(C)CC4)cc3)nc3ccsc23)c1 [Olmutinib]" property="inhibition at 10 µM" unit_of_measurement=% result_number=97.7
compound="CCS(=O)(=O)N1CC(CC#N)(n2cc(-c3ncnc4[nH]ccc34)cn2)C1 [Baricitinib]" property="inhibition at 10 µM" unit_of_measurement=% result_number=55.5
compound="CC(C)(C)c1nc(-c2cccc(NS(=O)(=O)c3c(F)cccc3F)c2F)c(-c2ccnc(N)n2)s1 [Dabrafenib]" property="inhibition at 10 µM" unit_of_measurement=% result_number=72.1
compound="Cc1cn(-c2cc(NC(=O)c3ccc(C)c(Nc4nccc(-c5cccnc5)n4)c3)cc(C(F)(F)F)c2)cn1 [Nilotinib]" property="inhibition at 10 µM" unit_of_measurement=% result_number=95.7
compound="Cc1ccc(Nc2nccc(N(C)c3ccc4c(C)n(C)nc4c3)n2)cc1S(N)(=O)=O [Pazopanib]" property="inhibition at 10 µM" unit_of_measurement=% result_number=90.2
compound="CC(=O)Nc1cccc(-n2c(=O)n(C3CC3)c(=O)c3c(Nc4ccc(I)cc4F)n(C)c(=O)c(C)c32)c1 [Trametinib]" property="inhibition at 10 µM" unit_of_measurement=% result_number=96.1
compound="Cn1cc(-c2cc3c(N4CCN(c5ncc([C@@](C)(N)c6ccc(F)cc6)cn5)CC4)ncnn3c2)cn1 [Avapritinib]" property="inhibition at 10 µM" unit_of_measurement=% result_number=78.6
compound="Cc1nc(Nc2ncc(C(=O)Nc3c(C)cccc3Cl)s2)cc(N2CCN(CCO)CC2)n1 [Dasatinib]" property="inhibition at 10 µM" unit_of_measurement=% result_number=95.4
compound="COc1cc2nccc(Oc3ccc(NC(=O)NC4CC4)c(Cl)c3)c2cc1C(N)=O [Lenvatinib]" property="inhibition at 10 µM" unit_of_measurement=% result_number=87.7
compound="CCc1nc(C(N)=O)c(Nc2ccc(N3CCC(N4CCN(C)CC4)CC3)c(OC)c2)nc1NC1CCOCC1 [Gilteritinib]" property="inhibition at 10 µM" unit_of_measurement=% result_number=96.7
compound="C[C@H]1Oc2cc(cnc2N)-c2c(nn(C)c2C#N)CN(C)C(=O)c2ccc(F)cc21 [Lorlatinib]" property="inhibition at 10 µM" unit_of_measurement=% result_number=61.8
compound="FC(F)(F)c1ccc(CNc2ccc(Cc3c[nH]c4ncc(Cl)cc34)cn2)cn1 [Pexidartinib]" property="inhibition at 10 µM" unit_of_measurement=% result_number=75.6

---

# TESTED SYSTEM: MATE1 (Homo sapiens, UniProt Q96FL8)
# EXPERIMENT NOTES: [14C]TEA uptake in HEK293 cells overexpressing human MATE1
# CONDITIONS: human, HEK293 cells overexpressing human MATE1, pH 7.4, probe [14C]TEA (tetraethylammonium), 2 µM
PROPERTY: inhibition at 10 µM

compound="CO[C@]1(C(=O)N[C@@H](C)c2ccc(-n3cc(F)cn3)nc2)CC[C@H](c2nc(C)cc(Nc3cc(C)[nH]n3)n2)CC1 [Pralsetinib]" result=94.5%
compound="N#CC[C@H](C1CCCC1)n1cc(-c2ncnc3[nH]ccc23)cn1 [Ruxolitinib]" result=63%
compound="COc1cc2nccc(Oc3ccc(NC(=O)C4(C(=O)Nc5ccc(F)cc5)CC4)cc3)c2cc1OC [Cabozantinib]" result=95.8%
compound="COc1cc2ncnc(Nc3ccc(F)c(Cl)c3)c2cc1OCCCN1CCOCC1 [Gefitinib]" result=91.8%

---

# TESTED SYSTEM: mouse MATE1 (Mus musculus, UniProt Q8K0H1)
# Sequence (Q8K0H1 whole entry): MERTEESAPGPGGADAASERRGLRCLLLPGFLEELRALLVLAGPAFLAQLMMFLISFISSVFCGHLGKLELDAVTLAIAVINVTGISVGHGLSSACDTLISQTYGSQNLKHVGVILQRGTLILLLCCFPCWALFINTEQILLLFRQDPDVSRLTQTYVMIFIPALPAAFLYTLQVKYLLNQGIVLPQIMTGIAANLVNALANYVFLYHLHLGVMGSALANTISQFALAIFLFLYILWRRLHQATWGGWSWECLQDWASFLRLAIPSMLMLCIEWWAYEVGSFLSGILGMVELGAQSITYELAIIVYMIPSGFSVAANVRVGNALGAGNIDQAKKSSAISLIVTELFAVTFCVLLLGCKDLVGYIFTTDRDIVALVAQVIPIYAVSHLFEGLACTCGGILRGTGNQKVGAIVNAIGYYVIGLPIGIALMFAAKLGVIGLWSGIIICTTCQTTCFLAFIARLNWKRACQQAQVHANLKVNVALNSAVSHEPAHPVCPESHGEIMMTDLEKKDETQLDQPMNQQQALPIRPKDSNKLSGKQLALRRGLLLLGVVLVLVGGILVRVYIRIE
# EXPERIMENT NOTES: cell-based
# CONDITIONS: Mouse IC50, HEK293 cells overexpressing mouse MATE1
PROPERTY: IC50

cpd_smiles=CN/C(=N/CCSCc1nc[nH]c1C)NC#N tested_system="mouse MATE1 (Mus musculus, UniProt Q8K0H1)" result="> 50 µM"

---

# TESTED SYSTEM: human OCT2 (Homo sapiens, UniProt O15244)
# Construct: host or cells: HEK293 (Flp-In system, pcDNA5/FRT)
# Sequence (O15244 whole entry): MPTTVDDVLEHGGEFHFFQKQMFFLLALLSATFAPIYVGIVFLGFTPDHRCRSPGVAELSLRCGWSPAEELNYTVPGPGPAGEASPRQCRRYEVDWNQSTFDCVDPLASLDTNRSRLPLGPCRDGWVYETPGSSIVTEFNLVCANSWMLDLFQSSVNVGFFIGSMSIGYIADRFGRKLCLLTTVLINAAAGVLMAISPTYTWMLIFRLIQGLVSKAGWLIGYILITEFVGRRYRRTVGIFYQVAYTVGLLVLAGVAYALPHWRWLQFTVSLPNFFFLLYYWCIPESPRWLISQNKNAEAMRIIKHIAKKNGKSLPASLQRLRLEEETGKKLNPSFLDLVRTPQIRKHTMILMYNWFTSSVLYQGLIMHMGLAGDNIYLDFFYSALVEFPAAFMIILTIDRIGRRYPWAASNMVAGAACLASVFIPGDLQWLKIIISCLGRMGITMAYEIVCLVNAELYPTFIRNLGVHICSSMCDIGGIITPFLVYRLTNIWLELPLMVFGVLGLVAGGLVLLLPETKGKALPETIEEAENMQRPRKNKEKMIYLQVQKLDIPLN
# EXPERIMENT NOTES: [14C]TEA uptake in HEK293 cells stably transfected with human OCT2
# Assay type: cell-based
# CONDITIONS: TKI 10 µM
PROPERTY: influence on OCT2 function (in words)

cpd_smiles=COc1cc(Nc2c(C#N)cnc3cc(OCCCN4CCN(C)CC4)c(OC)cc23)c(Cl)cc1Cl result="potently inhibiting"
cpd_smiles=CNC(=O)c1cc(Oc2ccc(NC(=O)Nc3ccc(Cl)c(C(F)(F)F)c3)c(F)c2)ccn1 result="no influence"
cpd_smiles=CCN(CC)CCNC(=O)c1c(C)[nH]c(/C=C2\C(=O)Nc3ccc(F)cc32)c1C result="potently inhibiting"
cpd_smiles=CNC(=O)c1cc(Oc2ccc(NC(=O)Nc3ccc(Cl)c(C(F)(F)F)c3)cc2)ccn1 result="no influence"

---

# TESTED SYSTEM: UniProtKB Q96FL8
# EXPERIMENT NOTES: [14C]TEA uptake in HEK293 cells overexpressing human MATE1
# CONDITIONS: human, HEK293 cells overexpressing human MATE1, pH 7.4, probe [14C]TEA (tetraethylammonium), 2 µM
inhibition at 10 µM of 90% or higher: fulfilled. Under 90%: not fulfilled.

cpd_smiles=COc1cc(Nc2c(C#N)cnc3cc(OCCCN4CCN(C)CC4)c(OC)cc23)c(Cl)cc1Cl classification=fulfilled
cpd_smiles=CC[C@@H]1CN(C(=O)NCC(F)(F)F)C[C@@H]1c1cnc2cnc3[nH]ccc3n12 classification="not fulfilled"
cpd_smiles=COc1ccc(CN2C3CC2CN(c2ccc(-c4cc(OCC(C)(C)O)cn5ncc(C#N)c45)cn2)C3)cn1 classification=fulfilled
cpd_smiles=COC(=O)c1ccc2c(c1)NC(=O)/C2=C(\Nc1ccc(N(C)C(=O)CN2CCN(C)CC2)cc1)c1ccccc1 classification=fulfilled
cpd_smiles=Cc1cc(Nc2ncc(Cl)c(Nc3ccccc3S(=O)(=O)C(C)C)n2)c(OC(C)C)cc1C1CCNCC1 classification=fulfilled
cpd_smiles=CCCS(=O)(=O)Nc1ccc(F)c(C(=O)c2c[nH]c3ncc(-c4ccc(Cl)cc4)cc23)c1F classification="not fulfilled"
